target: human Yes1 enzyme (Homo sapiens); construct: made in house; test: Yes1 enzyme inhibitory activity (time-resolved fluorometry, biotinylated peptide phosphorylation); assay type: biochemical; details: read-out: YES_IC50
Sequence (P07947 whole entry): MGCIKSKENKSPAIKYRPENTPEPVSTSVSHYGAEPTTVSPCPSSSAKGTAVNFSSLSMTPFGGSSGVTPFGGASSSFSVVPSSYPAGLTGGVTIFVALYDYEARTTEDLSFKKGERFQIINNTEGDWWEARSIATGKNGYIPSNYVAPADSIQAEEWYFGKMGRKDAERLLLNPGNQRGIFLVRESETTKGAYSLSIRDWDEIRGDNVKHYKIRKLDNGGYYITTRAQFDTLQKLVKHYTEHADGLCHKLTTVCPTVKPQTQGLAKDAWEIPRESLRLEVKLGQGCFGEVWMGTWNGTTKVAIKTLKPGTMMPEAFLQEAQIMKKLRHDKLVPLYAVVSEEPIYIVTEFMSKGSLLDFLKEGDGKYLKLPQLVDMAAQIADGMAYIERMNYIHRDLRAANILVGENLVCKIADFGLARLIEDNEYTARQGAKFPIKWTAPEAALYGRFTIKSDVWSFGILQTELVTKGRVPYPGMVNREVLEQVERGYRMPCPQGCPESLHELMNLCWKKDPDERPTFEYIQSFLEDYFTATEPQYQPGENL
pIC50: −log10 of the molar value.
Outcome Measure: pIC50

Consider the worked cases shown below.
# molecule Cc1cc(-n2ncc(C(=O)c3cc4cc(OC5CCN(C(C)C)CC5)c(C5CCN(S(C)(=O)=O)CC5)cc4[nH]3)c2N)ccc1Oc1ccccc1F ; its pIC50 = 9.17

Entry Cc1cc(Oc2c(F)cccc2F)ncc1-n1ncc(C(=O)c2cc3cc(OCC(F)F)c(N4C(=O)NC5(CCN(C6COC6)CC5)C4=O)cc3[nH]2)c1N , pIC50 reported as 9.06

Cc1cc(Oc2c(F)cccc2F)ncc1-n1ncc(C(=O)c2cc3cc(C(C)C)c(NS(=O)(=O)CCCF)cc3[nH]2)c1N yielded pIC50 of 8.01

Value of pIC50 reported for the molecule Cc1cc(Oc2c(F)cccc2F)ncc1-n1ncc(C(=O)c2cc3cc(C(C)C)c(NS(=O)(=O)N4C5CCC4COC5)cc3[nH]2)c1N is 7.57

I: Cc1cc(Oc2c(F)cccc2F)ncc1-n1ncc(C(=O)c2cc3cc(OCC(F)F)c(NS(=O)(=O)C4CCCC4)cc3[nH]2)c1N
II: Cc1cc(Oc2ccccc2F)ncc1-n1ncc(C(=O)c2cc3cc(OCC(F)F)c(NS(=O)(=O)C4CCOCC4)cc3[nH]2)c1N
III: Cc1cc(-n2ncc(C(=O)c3cc4cc(F)c(NS(C)(=O)=O)cc4[nH]3)c2N)cnc1Oc1ccccc1F
IV: Cc1cc2cc(C(=O)c3cnn(-c4c(C)cc(Oc5cccc(F)c5F)cc4F)c3N)[nH]c2cc1NS(=O)(=O)N1CCOCC1
Arrange the 4 molecules by rising pIC50, starting with the smallest. Give the labels in the order requested.
III, I, IV, II

----------
biological target: human Yes1 enzyme (Homo sapiens); construct: made in house; assay: Yes1 enzyme inhibitory activity (time-resolved fluorometry, biotinylated peptide phosphorylation); assay type: biochemical; settings: read-out: YES_IC50
Outcome Measure: IC50 (nM)

Some compounds with recorded IC50:
For this compound ( Cc1cc(Oc2c(F)cccc2F)ncc1-n1ncc(C(=O)c2cc3cc(OCC(F)F)c(N4C(=O)NC5(CCN(Cc6ccccc6)CC5)C4=O)cc3[nH]2)c1N [Example 5-1-351] ), measured IC50 is 0.65

The compound Cc1cc(Oc2c(F)cccc2F)ncc1-n1ncc(C(=O)c2cc3cc(F)c(N4C(=O)NC5(CCCCC5)C4=O)cc3[nH]2)c1N [Example 5-1-369] showed IC50 equal to 22

Recorded IC50 (compound Cc1cc(-n2ncc(C(=O)c3cc4cc(OC5CCN(C6CCC6)CC5)c(N)cc4[nH]3)c2N)ccc1Oc1ccccc1F [Example 5-1-232] ): 1.4

a: Cc1cc(Oc2cccc(Cl)c2)cc(F)c1-n1ncc(C(=O)c2cc3cc(NS(C)(=O)=O)c(F)cc3[nH]2)c1N [Example 5-1-048]
b: Cc1cc(Oc2c(F)cccc2F)ncc1-n1ncc(C(=O)c2cc3cc(SC(F)F)c(NS(=O)(=O)CCCF)cc3[nH]2)c1N [Example 5-1-320]
Please let me know which one, a or b , has a lower measured IC50 value. // caller expects the label of the chosen entry
a
(a: 1.6 nM, b: 18 nM)

----------
target: human Src enzyme (Homo sapiens, UniProt P12931); construct: purchased Carna Biosciences, Inc. 08-173; assay: Src enzyme inhibitory activity (time-resolved fluorometry, biotinylated peptide phosphorylation); format: biochemical; settings: biotinylated peptide phosphorylation, read-out: SRC_IC50
Sequence (P12931 whole entry): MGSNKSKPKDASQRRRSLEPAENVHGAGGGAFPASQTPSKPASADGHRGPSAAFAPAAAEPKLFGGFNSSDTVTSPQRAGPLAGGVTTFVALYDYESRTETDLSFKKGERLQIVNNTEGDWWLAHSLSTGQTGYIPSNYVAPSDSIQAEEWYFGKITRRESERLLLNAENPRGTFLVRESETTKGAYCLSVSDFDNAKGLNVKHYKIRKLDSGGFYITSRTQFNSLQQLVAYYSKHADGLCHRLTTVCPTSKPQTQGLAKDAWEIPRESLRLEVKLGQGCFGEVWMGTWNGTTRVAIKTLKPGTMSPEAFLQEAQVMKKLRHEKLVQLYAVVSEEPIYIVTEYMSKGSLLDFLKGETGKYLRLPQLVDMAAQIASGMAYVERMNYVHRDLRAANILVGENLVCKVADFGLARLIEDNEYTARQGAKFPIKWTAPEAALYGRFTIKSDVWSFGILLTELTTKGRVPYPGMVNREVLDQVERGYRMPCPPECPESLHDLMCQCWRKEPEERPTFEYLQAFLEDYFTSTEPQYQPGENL
Outcome Measure: IC50 (nM)

The compound listed as Cc1cc(Oc2c(F)cccc2F)ncc1-n1ncc(C(=O)c2cc3cc(OCC(F)F)c(-n4c(C)cc(=O)[nH]c4=O)cc3[nH]2)c1N [Example 4-23-029] has a reported IC50 of 34

1: Cc1cc(Oc2cccc(Cl)c2)cc(F)c1-n1ncc(C(=O)c2cc3cc(Cl)c(NS(C)(=O)=O)cc3[nH]2)c1N [Example 4-2-083]
2: Cc1cc(Oc2ccccc2F)ncc1-n1ncc(C(=O)c2cc3cc(F)c(NS(=O)(=O)c4c(F)cc(F)cc4F)cc3[nH]2)c1N [Example 5-1-568]
3: COc1cc2cc(C(=O)c3cnn(-c4cnc(Oc5c(F)cccc5F)cc4C)c3N)[nH]c2cc1N1CCCS1(=O)=O [Example 4-2-121]
4: Cc1cc2cc(C(=O)c3cnn(-c4cnc(Oc5ccccc5F)cc4C)c3N)[nH]c2cc1NS(=O)(=O)c1cccnc1 [Example 5-1-441]
5: Cc1cc(Oc2ccccc2F)ccc1-n1ncc(C(=O)c2cc3cc(OC(F)F)c(NC4CN(S(C)(=O)=O)C4)cc3[nH]2)c1N [Example 4-23-023]
Put the compounds in ascending order of IC50. Lab note: record answer as labels in requested order.
3, 5, 4, 1, 2
(3: 8 nM, 5: 17 nM, 4: 280 nM, 1: 520 nM, 2: 1300 nM)

A: Cc1cc(Oc2c(F)cccc2F)ncc1-n1ncc(C(=O)c2cc3cc(N4CCOCC4)c(NS(=O)(=O)CCCF)cc3[nH]2)c1N [Example 4-24-019]
B: Cc1cc(Oc2ccccc2Cl)cc(F)c1-n1ncc(C(=O)c2cc3cc(Cl)c(NS(C)(=O)=O)cc3[nH]2)c1N [Example 4-2-082]
Which is greater in IC50, the first item A or the second item B ? Your choice should be expressed through its label.
B
(B: 310 nM, A: 140 nM)
